TGI for assorted molecules
system: OVCAR-3 ovarian; test: NCI tumour cell line growth inhibition, 48 h
quantity_measured: TGI

[[record]]
molecule = "Cc1cc(S(=O)(=O)Nc2n[nH]c(N)n2)c(SCC(=O)O)cc1Cl"
measurement = "> 10 µM"

[[record]]
molecule = "O=C(CSc1nc2ccccc2nc1-c1ccccc1)Nc1ccc(F)cc1"
measurement = "> 100 µM"

[[record]]
molecule = "O=C1C(c2c(O)[nH]c3ccc(F)cc23)=Nc2ccccc21"
measurement = "> 100 µM"

[[record]]
molecule = "CN(C)C1(N(C)C)Oc2c(c(=O)n(C)c(=O)n2C)C(c2ccccc2)C1(F)F (centres undefined)"
measurement = "> 100 µM"

[[record]]
molecule = "CCOC(=O)Nc1ccc(C)c(NC(=O)OCC)c1"
measurement = "> 100 µM"

[[record]]
molecule = "CC(=O)Oc1ccc2c(C)cc(=O)oc2c1OC(C)=O"
measurement = "> 100 µM"

[[record]]
molecule = "COc1ccc(C(=O)/C=C/c2cc(-c3cc(OC)c(OC)c(OC)c3)n[nH]2)cc1OC"
measurement = "3.17 µM"

[[record]]
molecule = "Cc1ccc(/C=C/C(=O)c2sc(-c3nc(C)c(C(=O)/C=C/c4ccc(C)cc4)s3)nc2C)cc1"
measurement = "> 100 µM"

[[record]]
molecule = "Fc1cc(-c2cc(-c3ccccc3)no2)c(Cl)cc1Cl"
measurement = "> 40.1 µM"

[[record]]
molecule = "CC(C)C(=O)OCC1OC(n2c(Br)nc3c(=O)[nH]c(N)nc32)C(OC(=O)C(C)C)C1OC(=O)C(C)C (centres undefined)"
measurement = "> 100 µM"

[[record]]
molecule = "O=C(c1ccccc1)c1cc2ccccc2o1"
measurement = "> 100 µM"

[[record]]
molecule = "NCc1ccccc1-c1c2nc(c(-c3ccccc3CN)c3ccc([nH]3)c(-c3ccccc3CN)c3nc(c(-c4ccccc4CN)c4ccc1[nH]4)C=C3)C=C2"
measurement = "39.2 µM"

[[record]]
molecule = "C[C@@H]1CC[C@@H]2[C@@H]1[C@H](OC(=O)/C=C/c1ccccc1)[C@]1(C3CCCCC3)C[C@@H](OC(=O)CO)[C@@]2(C)O1"
measurement = "7.3 µM"

[[record]]
molecule = "COc1ccc2[nH]cc(C3(c4c[nH]c5ccc(OC)cc45)C(=O)Nc4ccc(F)cc43)c2c1"
measurement = "4.42 µM"

[[record]]
molecule = "CC(=O)c1c(C)n([O-])c2cc(Cl)c(Cl)cc2[n+]1=O"
measurement = "88.5 µM"

[[record]]
molecule = "COc1cc2c(c(OC)c1OC)-c1ccc(SC)c(=O)cc1C(NC=O)CC2 (centres undefined)"
measurement = "2.33 µM"

[[record]]
molecule = "COc1cc(F)ccc1-c1ncnc(Nc2cccc(CS(C)(=N)=O)c2)n1 (centres undefined)"
measurement = "> 100 µM"

[[record]]
molecule = "Oc1cccnc1[Se]"
measurement = "> 100 µM"

[[record]]
molecule = "CCOC(=O)C12OC(CCC1=O)C(C(=O)OC)=C2C(=O)OC (centres undefined)"
measurement = "> 10 µM"

[[record]]
molecule = "COc1ccc(Nc2nnc(-c3cc(O)ccc3O)s2)cc1"
measurement = "> 50 µM"

[[record]]
molecule = "C=C(Cl)C(Br)(CCl)CCC(Br)C(C)(C)Cl (centres undefined)"
measurement = "3.73 µM"

[[record]]
molecule = "N#Cc1c2ccccc2cn1-c1ccc(F)cc1"
measurement = "67.9 µM"

[[record]]
molecule = "O=c1cnn(C/C=C/CO)c(=O)[nH]1"
measurement = "> 100 µM"

[[record]]
molecule = "N#C/C1=C(\\N)CCSSSC1"
measurement = "> 100 µM"


Data origin: PubChem BioAssay (NCI)
